Assay: physchem
Settings: 23 °C, water, thermodynamic from solid
Parameter: solubility

If you can, please state the reported solubility value of CC(O)C(=O)O.CN1CCN(c2ccc3nc(-c4c(N)c5c(F)cccc5[nH]c4=O)[nH]c3c2)CC1 [Form A] . > 400 mg/mL
